// reported cAMP Rel EC50, nM (1% HSA) per item
# tgt: human glucagon receptor (human) (UniProt P47871)
# Sequence (P47871 26-477): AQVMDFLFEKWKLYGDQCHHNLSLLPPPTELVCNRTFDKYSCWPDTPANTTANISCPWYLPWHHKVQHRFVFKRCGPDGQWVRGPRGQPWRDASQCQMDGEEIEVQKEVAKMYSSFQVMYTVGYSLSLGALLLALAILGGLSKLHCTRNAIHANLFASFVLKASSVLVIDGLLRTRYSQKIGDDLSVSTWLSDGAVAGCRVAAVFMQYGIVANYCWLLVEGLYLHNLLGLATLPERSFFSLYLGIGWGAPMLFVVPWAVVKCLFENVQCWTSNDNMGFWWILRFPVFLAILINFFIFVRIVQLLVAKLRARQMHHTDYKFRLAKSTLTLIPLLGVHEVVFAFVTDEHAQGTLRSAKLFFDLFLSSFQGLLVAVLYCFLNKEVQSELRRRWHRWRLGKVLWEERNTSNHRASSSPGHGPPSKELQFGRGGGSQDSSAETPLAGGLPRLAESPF
# experiment: cell-based or functional assay
Starred links: 1 amine or outer side, 2 acyl side, 3 side chain; linkers in the order of their positions; H or OH if unused. Non-standard residues stand in square brackets, D forms with d. Groups on a side chain read outwards from the residue. No end group written: not given here. *: point of attachment. C18 diacid = O=C(O)CCCCCCCCCCCCCCCCC(=O)*; γGlu = O=C(O)[C@H](CCC(=O)[*:2])N[*:1]; 4Pal = N[C@@H](Cc1ccncc1)C(=O)O; αMeL = CC(C)C[C@](C)(N)C(=O)O; Dab = NCC[C@H](N)C(=O)O; AEEA = NCCOCCOCC(=O)O; Aib = CC(C)(N)C(=O)O
Write the answer as a number in nM, unit excluded.

Consider the reported cAMP Rel EC50, nM (1% HSA) for these binders:
binder	cAMP Rel EC50, nM (1% HSA), nM
YXQGTFTSDXSQXLDXKAQXAFIEXLIEGGPSSGAPPPSGSEE (not fully specified; non-natural residues; lipidated Lys; C-terminal amide; synthetic construct; SITE 2: note = 2-Aminoisobutyric Acid; SITE 10: note = 3-(4-Pyridyl)-L-alanine; SITE 13: note = alpha-methyl-leucine; SITE 16: note = L-ornithine; SITE 17: note = Lysine is chemically modified through conjugation of the epsilon-amino group of the Lysine side chain with (2-[2-(2-) [Example 1042]	1890
YXQGTFTSDXSXXLDXKAQXAFIEYLIAGGPSSGEPPPSGTEE (non-natural residues, acylated Lys, C-terminal amide; synthetic construct; SITE 2: note = 2-Aminoisobutyric Acid; SITE 10: note = 3-(4-Pyridyl)-L-alanine; SITE 12: note = L-ornithine; SITE 13: note = alpha-methyl-leucine; SITE 16: note = L-ornithine; SITE 17: note = Lysine is chemically modified through conjugation of the epsilon-amino group of the Lys) [Example 985]	374
YXQGTXTSDXXIXLDXKAQXXFIEXLLEGGPSSXEPPPE (synthetic construct; SITE 2: note = 2-Aminoisobutyric Acid; SITE 6: note = alpha-methyl-2-fluoro-L-phenylalanine; SITE 10: note = 3-(4-Pyridyl)-L-alanine; SITE 11: note = alpha-methyl-L-serine; SITE 13: note = alpha-methyl-leucine; SITE 16: note = L-ornithine; SITE 17: note = Lysine is chemically mo) [Example 380]	150
YXQGTFTSDXSXXLDXKAQXEFIEYLLAGGPSSGAPPPSGSEE ((γGlu)2-C18 diacid on Lys; non-natural residues; amide; synthetic construct; SITE 2: note = 2-Aminoisobutyric Acid; SITE 10: note = 3-(4-Pyridyl)-L-alanine; SITE 12: note = L-ornithine; SITE 13: note = alpha-methyl-leucine; SITE 16: note = L-ornithine; SITE 17: note = Lysine is chemically modified through conjugation of the epsilon-amino group of the Lys) [Example 1003]	371
YXQGTFTSDXSQXLDXKAQXAFIEYLIAGGPSSGAPPPSGSEE (non-natural residues; C18 diacid-(γ-Glu)2 acyl on Lys; C-terminal amide; synthetic construct; SITE 2: note = 2-Aminoisobutyric Acid; SITE 10: note = 3-(4-Pyridyl)-L-alanine; SITE 13: note = alpha-methyl-leucine; SITE 16: note = L-ornithine; SITE 17: note = Lysine is chemically modified through conjugation of the epsilon-amino group of the Lysine side chain with (gamma-Gl)) [Example 1031]	1200

Now consider the entry below.
Report cAMP Rel EC50, nM (1% HSA), nothing else, for this binder: Y[Aib]QGTFTSD[4Pal]S[Dab][αMeL]LDKK([AEEA-γGlu-C18 diacid])AQ[Aib]AFIEYLIE[Aib]GESSGAPPPSGS-NH2 [Example 188] 2920
